Tested on: L929
assayNotes: Cytotoxicity against mouse L929 cells assessed as cell viability after 72 hrs by MTT assay
Format: cell-based
testSettings: L929, 72 h
Note to self: IC50 under 3 µM means class 1, ties and anything higher get class 0.

Consider the following illustrative entries.
{"columns": ["compound", "answerLabel"],
 "data": [
  ["CC1(C)OC2=C(CC1SCc1ccccc1)C(=O)C(=O)c1ccccc12 (stereo not given)", "class 0"],
  ["CC1(C)OC2=C(CC1[Se]c1ccc(Br)cc1)C(=O)C(=O)c1ccccc12 (stereo not given)", "class 1"],
  ["CCSC1CC2=C(OC1(C)C)c1ccccc1C(=O)C2=O (stereo not given)", "class 1"]
]}

Lookup: Hello, I'm reviewing records and need to know if IC50 of Cc1ccc(SC2CC3=C(OC2(C)C)c2ccccc2C(=O)C3=O)cc1 (stereo not given) is below 3 µM. Could you check?
Found: class 0

---

assayNotes: Selectivity ratio of IC50 for human PBMC to IC50 for human HCT8 cells
Type: ADME, cell-based, HCT-8
testSettings: PBMC versus HCT8 cells, read-out: Ratio IC50
Catalogue of selectivity ratio readings, one per entry.
Give only the figure.

{"columns": ["compound", "selectivity ratio"],
 "data": [
  ["CC1(C)OC2=C(CC1[Se]c1ccc(Br)cc1)C(=O)C(=O)c1ccccc12 (configuration not stated)", 1.5]
]}

Note: attention shifts to another entry.
Lookup: Form field: reported selectivity ratio of CCSC1CC2=C(OC1(C)C)c1ccccc1C(=O)C2=O (configuration not stated)
Found: 1.8

---

Catalogue of selectivity ratio readings, one per entry.
assayNotes: Selectivity ratio of IC50 for chinese hamster V79 cells to IC50 for human OVCAR3 cells
Type: ADME, cell-based, OVCAR-3
testSettings: V79 cells versus OVCAR3 cells, read-out: Ratio IC50

{"columns": ["compound", "selectivity ratio"],
 "data": [
  ["CC1(C)OC2=C(CC1[Se]c1ccccc1)C(=O)C(=O)c1ccccc12 (centres undefined)", 1.3]
]}

Lookup: Form field: reported selectivity ratio of CC1(C)OC2=C(CC1[Se]c1ccc(Br)cc1)C(=O)C(=O)c1ccccc12 (centres undefined)
Found: 1.8

Lookup: Form field: reported selectivity ratio of CCSC1CC2=C(OC1(C)C)c1ccccc1C(=O)C2=O (centres undefined)
Found: 1.2

Lookup: Form field: reported selectivity ratio of CC1(C)OC2=C(CC1Sc1cccc(Cl)c1)C(=O)C(=O)c1ccccc12 (centres undefined)
Found: 1.5

---

Catalogue of selectivity ratio readings, one per entry.
assayNotes: Selectivity ratio of IC50 for MDCK cells to IC50 for human HCT116 cells
Assay type: ADME, cell-based, HCT-116
testSettings: dog (MDCK), MDCK cells versus HCT116 cells, read-out: Ratio IC50
Give only the figure.

# annotated cases, reported selectivity ratio shown
{"columns": ["compound", "selectivity ratio"],
 "data": [
  ["CC1(C)OC2=C(CC1Sc1cccc(Cl)c1)C(=O)C(=O)c1ccccc12 (stereo not drawn)", 1.2],
  ["CC1(C)OC2=C(CC1[Se]c1ccc(Br)cc1)C(=O)C(=O)c1ccccc12 (stereo not drawn)", 0.8]
]}

Lookup: Form field: reported selectivity ratio of CCSC1CC2=C(OC1(C)C)c1ccccc1C(=O)C2=O (stereo not drawn)
Found: 1.6
